- STUDY_SYSTEM: T1, DnaE1 (replicative DNA polymerase) (Mycobacterium tuberculosis, UniProt P9WNT7 1-1184)
- T1 sequence: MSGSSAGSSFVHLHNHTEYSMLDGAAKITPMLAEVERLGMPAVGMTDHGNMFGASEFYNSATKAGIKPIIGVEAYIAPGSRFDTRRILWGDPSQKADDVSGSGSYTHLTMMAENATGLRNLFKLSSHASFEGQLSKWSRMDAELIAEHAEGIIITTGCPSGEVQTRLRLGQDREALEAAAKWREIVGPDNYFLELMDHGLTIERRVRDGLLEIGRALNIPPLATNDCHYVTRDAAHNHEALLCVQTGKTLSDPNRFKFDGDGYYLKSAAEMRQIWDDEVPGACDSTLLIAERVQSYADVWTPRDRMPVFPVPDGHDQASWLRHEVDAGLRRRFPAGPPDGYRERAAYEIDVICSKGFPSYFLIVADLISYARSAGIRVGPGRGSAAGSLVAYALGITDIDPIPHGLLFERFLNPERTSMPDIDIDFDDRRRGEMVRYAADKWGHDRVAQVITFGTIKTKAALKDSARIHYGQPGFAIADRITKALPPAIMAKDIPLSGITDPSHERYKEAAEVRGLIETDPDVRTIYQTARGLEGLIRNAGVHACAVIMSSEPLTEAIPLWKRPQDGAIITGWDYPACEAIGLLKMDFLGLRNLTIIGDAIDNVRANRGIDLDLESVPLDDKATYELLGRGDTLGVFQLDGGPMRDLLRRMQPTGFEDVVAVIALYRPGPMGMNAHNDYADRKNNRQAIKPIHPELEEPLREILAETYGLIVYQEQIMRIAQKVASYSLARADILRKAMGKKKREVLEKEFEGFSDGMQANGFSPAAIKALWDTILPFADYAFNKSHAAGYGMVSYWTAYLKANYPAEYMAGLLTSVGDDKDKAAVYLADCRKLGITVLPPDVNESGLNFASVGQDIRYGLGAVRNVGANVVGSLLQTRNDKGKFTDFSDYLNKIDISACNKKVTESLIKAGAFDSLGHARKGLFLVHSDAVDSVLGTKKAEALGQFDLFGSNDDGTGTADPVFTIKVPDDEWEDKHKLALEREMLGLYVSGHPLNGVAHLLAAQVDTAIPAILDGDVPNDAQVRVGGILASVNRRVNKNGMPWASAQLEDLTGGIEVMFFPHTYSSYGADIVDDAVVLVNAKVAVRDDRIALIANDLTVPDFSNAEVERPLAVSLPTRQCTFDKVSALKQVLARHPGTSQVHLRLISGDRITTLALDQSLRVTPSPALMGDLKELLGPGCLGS
- EXPERIMENT: fluorescence anisotropy
- STATED_CONDITIONS: protein: recombinant; label: 5'-Cy3 on primer (strand 1); 24 bp duplex, 5' overhang 30 nt on template
QUANTITY: Kd (nM)
// units = nM; emit number, no label

Incoming: Report Kd, nothing else, for this binder: primed DNA substrate (anisotropy) (dsDNA) DNA 1: GGTAACGCCAGGGTTTTCCCAGTC DNA 2: CGCTCACTGGCCGTCGTTTTACAACGTCGTGACTGGGAAAACCCTGGCGTTACC
Outgoing: 250
